target: furin, P09958; experiment: furin cleavage Z-score vs untreated control; higher = more cleavage, active = 3.5 or more, inactive = 1 or less, 8 variable residues between constant flanks; conditions: 15 min;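 also: purified furin at 1:10 enzyme:substrate in 50 mM HEPES pH 7.5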
Sequence (P09958 whole entry): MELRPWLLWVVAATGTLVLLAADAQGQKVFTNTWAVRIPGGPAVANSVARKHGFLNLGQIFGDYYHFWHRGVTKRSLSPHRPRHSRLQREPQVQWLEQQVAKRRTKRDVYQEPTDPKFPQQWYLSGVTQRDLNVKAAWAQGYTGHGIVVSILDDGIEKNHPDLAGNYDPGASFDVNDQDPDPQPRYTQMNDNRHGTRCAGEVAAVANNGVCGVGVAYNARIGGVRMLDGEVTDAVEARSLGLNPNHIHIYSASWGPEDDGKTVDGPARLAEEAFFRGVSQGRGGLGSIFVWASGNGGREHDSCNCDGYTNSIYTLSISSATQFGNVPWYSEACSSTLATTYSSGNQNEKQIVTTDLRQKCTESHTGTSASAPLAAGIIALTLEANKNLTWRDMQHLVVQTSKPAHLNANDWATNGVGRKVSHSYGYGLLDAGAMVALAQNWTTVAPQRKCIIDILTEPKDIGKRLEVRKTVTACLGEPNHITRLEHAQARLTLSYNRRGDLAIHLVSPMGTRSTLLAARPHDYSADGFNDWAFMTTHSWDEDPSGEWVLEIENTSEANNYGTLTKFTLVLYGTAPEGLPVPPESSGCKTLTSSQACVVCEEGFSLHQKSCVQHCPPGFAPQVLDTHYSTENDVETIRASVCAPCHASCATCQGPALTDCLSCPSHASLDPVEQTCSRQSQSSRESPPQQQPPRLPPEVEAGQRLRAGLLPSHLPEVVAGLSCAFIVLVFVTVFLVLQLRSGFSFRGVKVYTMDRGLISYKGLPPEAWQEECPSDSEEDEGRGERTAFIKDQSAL
This is one part of the list. How many sequences the whole screen found active is unknown.
Answer with one of the outcomes given here: active, inactive

Ask: Assay result, entry CARKRRAPLAAGNASASA [FS-2698] — outcome?
Result: active
